// reported pIC50 for each item listed
Test system: Hep3B
Assay Overview: Cell viability, crystal violet assay, Hep3B
Type: cell-based, human
Test Parameters: Homo sapiens, Hep3B, 48 h; mean ± standard error
Procedure: The human hepatoma cell line HepG2 was obtained from the American Tissue Culture Collection (ATCC, Manassas, VA, USA). […] Cell lines were seeded into 96-well plates at 5 × 10^3 (HepG2) and 3 × 10^3 (Hep3B and HH4) cells/well 24 h before treatment. […] After treatment, the cell viability was determined using the crystal violet assay. The absorbance was recorded at 590 nm in a Synergy HT microplate reader (BioTek, Winooski, VT, USA). […]
Friendly reminder that pIC50 comes from taking -log10 of the concentration in mol/L.

Use the examples below as a reference point.
Oc1ccc([C@H]2Oc3cc(O)cc(/C=C/c4ccc5c(c4)[C@@H](c4cc(O)cc6c4[C@H](c4cc(O)cc(O)c4)[C@@H](c4ccc(O)cc4)O6)[C@H](c4ccc(O)cc4)O5)c3[C@@H]2c2cc(O)cc(O)c2)cc1 : 3.86
Oc1ccc(/C=C/c2cc(O)cc(O)c2)cc1 [trans-Resveratrol, reference compound] : 4.38
Oc1ccc(/C=C/c2cc(O)cc3c2[C@@H](c2cc(O)cc(O)c2)[C@H](c2ccc(O)cc2)O3)cc1 [trans-ε-Viniferin] : 4.13
Oc1ccc([C@H]2c3c(O)cc(O)cc3[C@H]3c4c(cc(O)cc4[C@@H]2O)O[C@@H]3c2ccc(O)cc2)cc1 : 3.83

Q: Could you please provide reported pIC50 for Oc1ccc([C@H]2c3c(O)cc(O)cc3[C@H]3c4c(cc(O)cc4[C@@H]2c2cc(/C=C/c4cc(O)cc5c4[C@H](c4cc(O)cc(O)c4)[C@@H](c4ccc(O)cc4)O5)ccc2O)O[C@@H]3c2ccc(O)cc2)cc1 ? Thanks!
A: 4.36

The reported numbers originate from paper PMC7346113.
